Biological target: human αVβ8 (Homo sapiens, UniProt P06756+P26012)
Sequence (P26012 43-684 limits assumed, one chain of several): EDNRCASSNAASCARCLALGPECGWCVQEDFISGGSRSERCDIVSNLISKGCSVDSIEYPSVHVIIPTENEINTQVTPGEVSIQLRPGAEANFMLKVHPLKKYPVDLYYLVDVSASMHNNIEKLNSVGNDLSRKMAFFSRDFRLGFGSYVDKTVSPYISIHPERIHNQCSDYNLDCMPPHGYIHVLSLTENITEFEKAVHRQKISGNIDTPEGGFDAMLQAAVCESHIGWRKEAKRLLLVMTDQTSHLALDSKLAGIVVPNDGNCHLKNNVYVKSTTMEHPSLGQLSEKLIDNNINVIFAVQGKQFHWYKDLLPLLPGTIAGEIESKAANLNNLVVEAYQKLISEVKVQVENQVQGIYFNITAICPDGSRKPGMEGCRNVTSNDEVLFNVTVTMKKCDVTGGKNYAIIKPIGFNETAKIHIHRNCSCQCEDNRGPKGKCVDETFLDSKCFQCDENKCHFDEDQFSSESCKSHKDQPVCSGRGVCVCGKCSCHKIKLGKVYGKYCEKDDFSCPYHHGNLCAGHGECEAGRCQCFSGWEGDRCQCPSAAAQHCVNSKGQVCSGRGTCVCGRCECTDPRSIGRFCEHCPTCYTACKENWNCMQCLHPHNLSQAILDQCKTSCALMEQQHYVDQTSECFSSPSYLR
Test: human αVβ8 HTRF binding assay
Structures can show the parent of a compound that is named as a salt.
parameter: IC50 (nM)

compound: COc1ccc([C@H](CC(=O)O)NC(=O)c2cc(CCc3ccc4c(n3)NCCC4)c(C)[nH]2)cn1 [Example 10]
value observed: 415

P: O=C(N[C@@H](CNC(=O)c1cc(CCc2ccc3c(n2)NCCC3)c[nH]1)C(=O)O)OCc1ccccc1 [Example 25, TFA]
Q: O=C(N[C@@H](CNC(=O)c1cc(CCc2ccc3c(n2)NCCC3)c[nH]1)C(=O)O)OC1CCCC1 [Example 26]
Qu. // which entry reports the smaller IC50, P or Q ? Your answer should be the label of the entry you select.
Ans. Q
(Q: 8.78 nM, P: 12.6 nM)

====

Biological target: human αVβ3 (Homo sapiens, UniProt P05106+P06756)
Sequence (P05106 27-718 limits assumed, one chain of several): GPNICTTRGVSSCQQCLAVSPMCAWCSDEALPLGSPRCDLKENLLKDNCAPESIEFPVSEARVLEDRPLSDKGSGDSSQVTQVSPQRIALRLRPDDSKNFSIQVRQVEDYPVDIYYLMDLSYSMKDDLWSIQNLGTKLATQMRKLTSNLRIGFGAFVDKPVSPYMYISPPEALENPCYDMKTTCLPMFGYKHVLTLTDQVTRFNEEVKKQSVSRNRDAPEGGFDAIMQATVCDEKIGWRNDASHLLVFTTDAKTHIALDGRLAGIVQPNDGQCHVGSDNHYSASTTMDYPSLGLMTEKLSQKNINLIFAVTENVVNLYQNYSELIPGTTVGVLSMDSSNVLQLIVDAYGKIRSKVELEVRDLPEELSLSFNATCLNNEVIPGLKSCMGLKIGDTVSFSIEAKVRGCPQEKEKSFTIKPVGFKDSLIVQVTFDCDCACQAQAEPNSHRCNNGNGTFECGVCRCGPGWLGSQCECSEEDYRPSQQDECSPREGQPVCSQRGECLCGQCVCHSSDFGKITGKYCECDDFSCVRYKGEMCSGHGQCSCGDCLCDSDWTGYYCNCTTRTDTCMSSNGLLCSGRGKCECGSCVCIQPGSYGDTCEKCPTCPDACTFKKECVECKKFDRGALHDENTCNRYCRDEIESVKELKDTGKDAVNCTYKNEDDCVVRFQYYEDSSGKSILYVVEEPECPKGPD
Test: human αVβ3 HTRF binding assay
Where a name gives a salt, the structure may show the parent alone.
parameter: IC50 (nM)

Consider the worked cases shown below.
compound: O=C(O)C[C@H](NC(=O)c1cc(CCc2ccc3c(n2)NCCC3)c[nH]1)c1cnc2ccccc2c1
target entity: human αVβ3 (Homo sapiens, UniProt P05106+P06756)
IC50 / nM: 3.44
//
compound: Cc1cc(C)c(S(=O)(=O)N[C@@H](CNC(=O)c2cc(CCc3ccc4c(n3)NCCC4)c[nH]2)C(=O)O)c(C)c1
target entity: human αVβ3 (Homo sapiens, UniProt P05106+P06756)
IC50 / nM: 5.36
//
compound: Cc1cc(C)c(S(=O)(=O)N[C@@H](CNC(=O)c2cc(CCC3CCc4cccnc4N3)c[nH]2)C(=O)O)c(C)c1 (mixture of isomers)
target entity: human αVβ3 (Homo sapiens, UniProt P05106+P06756)
IC50 / nM: 2
//
compound: COc1ccc([C@H](CC(=O)O)NC(=O)c2cc(CCc3ccc4c(n3)NCCC4)c(C)[nH]2)cn1
target entity: human αVβ3 (Homo sapiens, UniProt P05106+P06756)
IC50 / nM: 2.49
//
compound: O=C(N[C@@H](CNC(=O)c1cc(CCc2ccc3c(n2)NCCC3)c[nH]1)C(=O)O)OCc1ccccc1 [Example 25, TFA]
target entity: human αVβ3 (Homo sapiens, UniProt P05106+P06756)
IC50 / nM: 1.5

a: COc1ncc(C(CC(=O)O)NC(=O)c2cc(CCc3ccc4c(n3)NCCC4)c[nH]2)cn1 (stereo not drawn)
b: O=C(N[C@@H](CNC(=O)c1cc(CCc2ccc3c(n2)NCCC3)c[nH]1)C(=O)O)OC1CCCC1
Qu. Which has the higher IC50, a or b ? Your answer should be the label of the entry you select.
Ans. a

====

Target: human αVβ6 Integrin (Homo sapiens, UniProt P06756+P18564)
Sequence (P18564 22-707 limits assumed, one chain of several): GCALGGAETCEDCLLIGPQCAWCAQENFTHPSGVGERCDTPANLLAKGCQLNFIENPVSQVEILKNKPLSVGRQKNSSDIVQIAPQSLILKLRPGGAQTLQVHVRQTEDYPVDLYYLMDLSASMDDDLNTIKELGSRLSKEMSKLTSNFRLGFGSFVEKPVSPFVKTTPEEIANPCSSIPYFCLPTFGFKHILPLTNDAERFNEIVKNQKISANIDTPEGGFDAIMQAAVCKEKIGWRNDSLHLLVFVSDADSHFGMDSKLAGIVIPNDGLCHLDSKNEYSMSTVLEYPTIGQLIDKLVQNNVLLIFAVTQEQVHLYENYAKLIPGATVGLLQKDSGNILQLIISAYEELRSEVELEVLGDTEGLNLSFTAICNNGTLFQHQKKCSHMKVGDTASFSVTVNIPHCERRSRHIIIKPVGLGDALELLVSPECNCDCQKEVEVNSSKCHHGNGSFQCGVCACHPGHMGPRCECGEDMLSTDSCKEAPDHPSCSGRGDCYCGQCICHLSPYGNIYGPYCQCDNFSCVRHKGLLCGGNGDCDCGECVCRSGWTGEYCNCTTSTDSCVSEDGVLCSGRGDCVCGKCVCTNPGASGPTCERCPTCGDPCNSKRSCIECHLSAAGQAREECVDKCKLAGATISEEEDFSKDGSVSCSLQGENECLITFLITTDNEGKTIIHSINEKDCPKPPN
Test: human αVβ6 HTRF binding assay
Text: All binding assays used the HTRF (homogeneous time resolved fluorescence) technology from Cisbio International, therefore all assays are described as HTRF binding assays. The assay results for the Examples are listed above together with the characterization data. The HTRF binding assays are established for the following integrins: human αVβ6, human αVβ1, human αVβ3, human αVβ5, and human αVβ8. […]
pIC50: −log10 of the molar value.
parameter: pIC50

Consider the worked cases shown below.
molecule: O=C(O)CC(NC(=O)c1cc(CCc2ccc3c(n2)NCCC3)c[nH]1)c1cncnc1 (stereo not shown) [Example 15]
pIC50: 7.93
//
molecule: COc1ccc([C@H](CC(=O)O)NC(=O)c2cc(CCC3CCc4cccnc4N3)c[nH]2)cc1F (mixture of isomers) [Example 2]
pIC50: 8.43
//
molecule: Cc1ncc([C@H](CC(=O)O)NC(=O)c2cc(CCCc3ccc4c(n3)NCCC4)c[nH]2)cn1 [Example 21]
pIC50: 6.78
//
molecule: O=C(O)CC(NC(=O)c1cc(CCc2ccc3c(n2)NCCC3)c[nH]1)c1cnc2ccccc2n1 (stereo not shown) [Example 18]
pIC50: 7.59
//
molecule: COc1ncc([C@H](CC(=O)O)NC(=O)c2cc(CCCc3ccc4c(n3)NCCC4)c[nH]2)cn1 [Example 22]
pIC50: 7.84
//
molecule: COc1ccc([C@H](CC(=O)O)NC(=O)c2cc(CCc3ccc4c(n3)NCCC4)c(C)[nH]2)cn1 [Example 10]
pIC50: 8.40

A: O=C(O)C[C@H](NC(=O)c1cc(CCc2ccc3c(n2)NCCC3)c[nH]1)c1cc(Cl)cc(Cl)c1 [Example 11]
B: COc1ccc([C@H](CC(=O)O)NC(=O)c2cc(-c3ccc4c(n3)NCCC4)c[nH]2)cc1F [Example 19]
C: O=C(N[C@@H](CNC(=O)c1cc(CCc2ccc3c(n2)NCCC3)c[nH]1)C(=O)O)OC1CCCC1 [Example 26]
Qu. // sort entries: pIC50, high to low Present the labels in the sequence the task asks for.
Ans. C, A, B
(C: 9.55, A: 8.69, B: 7.09)

a: COc1ccc([C@H](CC(=O)O)NC(=O)c2cc(CCc3ccc4c(n3)NCCC4)c[nH]2)cn1 [Example 7]
b: COc1ccc([C@H](CC(=O)O)NC(=O)c2cc(CCCc3ccc4c(n3)NCCC4)c[nH]2)cn1 [Example 20]
Qu. Which has the higher pIC50, a or b ? Your answer should be the label of the entry you select.
Ans. a

====

Target: human αVβ1 (Homo sapiens, UniProt P05556+P06756)
Sequence (P06756 31-992 limits assumed): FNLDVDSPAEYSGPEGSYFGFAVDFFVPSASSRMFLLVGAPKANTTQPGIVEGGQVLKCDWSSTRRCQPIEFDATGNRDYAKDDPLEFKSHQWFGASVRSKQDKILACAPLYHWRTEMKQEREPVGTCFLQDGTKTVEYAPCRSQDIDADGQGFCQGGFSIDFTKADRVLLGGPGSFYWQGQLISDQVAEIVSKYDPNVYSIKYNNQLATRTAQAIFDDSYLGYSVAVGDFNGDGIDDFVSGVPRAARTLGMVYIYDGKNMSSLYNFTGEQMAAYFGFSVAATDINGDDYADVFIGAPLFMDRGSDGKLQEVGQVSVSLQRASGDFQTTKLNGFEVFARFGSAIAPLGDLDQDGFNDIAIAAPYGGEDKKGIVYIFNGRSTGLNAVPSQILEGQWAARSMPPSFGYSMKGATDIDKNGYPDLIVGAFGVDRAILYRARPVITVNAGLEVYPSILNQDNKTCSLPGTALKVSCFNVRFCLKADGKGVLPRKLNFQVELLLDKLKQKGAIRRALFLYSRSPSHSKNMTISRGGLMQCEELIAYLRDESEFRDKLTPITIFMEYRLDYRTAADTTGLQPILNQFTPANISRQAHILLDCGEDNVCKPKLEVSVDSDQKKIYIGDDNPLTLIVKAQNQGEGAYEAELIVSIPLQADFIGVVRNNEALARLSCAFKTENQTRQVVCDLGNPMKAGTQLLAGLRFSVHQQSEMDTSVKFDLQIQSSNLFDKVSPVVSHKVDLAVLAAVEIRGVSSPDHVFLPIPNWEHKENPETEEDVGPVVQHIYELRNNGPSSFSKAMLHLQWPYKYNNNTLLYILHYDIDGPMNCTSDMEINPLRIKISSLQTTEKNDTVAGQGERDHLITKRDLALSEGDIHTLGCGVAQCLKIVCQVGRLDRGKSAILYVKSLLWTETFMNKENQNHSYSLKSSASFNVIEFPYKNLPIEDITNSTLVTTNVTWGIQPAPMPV
Sequence (P05556 21-728 limits assumed): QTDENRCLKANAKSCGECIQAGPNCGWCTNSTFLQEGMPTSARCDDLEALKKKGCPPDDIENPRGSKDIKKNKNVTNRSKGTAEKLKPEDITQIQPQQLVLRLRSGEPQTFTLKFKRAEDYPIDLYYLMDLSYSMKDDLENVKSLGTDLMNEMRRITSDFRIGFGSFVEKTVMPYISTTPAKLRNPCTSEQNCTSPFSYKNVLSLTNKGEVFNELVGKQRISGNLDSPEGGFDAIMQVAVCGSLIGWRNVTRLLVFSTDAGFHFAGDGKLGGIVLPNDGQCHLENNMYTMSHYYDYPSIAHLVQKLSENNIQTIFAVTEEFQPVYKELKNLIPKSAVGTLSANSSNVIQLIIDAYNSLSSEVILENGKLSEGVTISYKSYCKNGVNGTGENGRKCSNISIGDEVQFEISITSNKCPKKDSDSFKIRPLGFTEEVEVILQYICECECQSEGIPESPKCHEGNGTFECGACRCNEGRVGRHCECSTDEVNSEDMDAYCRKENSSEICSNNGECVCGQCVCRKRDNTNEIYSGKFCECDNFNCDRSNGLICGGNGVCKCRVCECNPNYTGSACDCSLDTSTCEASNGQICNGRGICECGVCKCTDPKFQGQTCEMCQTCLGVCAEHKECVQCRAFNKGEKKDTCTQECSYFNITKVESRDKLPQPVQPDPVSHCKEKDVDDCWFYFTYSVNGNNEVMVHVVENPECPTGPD
Assay: human αVβ1 HTRF binding assay
parameter: IC50 (nM)

compound: Cc1cc(C)c(S(=O)(=O)N[C@@H](CNC(=O)c2cc(CCC3CCc4cccnc4N3)c[nH]2)C(=O)O)c(C)c1 (mixture of isomers)
value unit: nM
value observed: 3.03
--
compound: O=C(O)C[C@H](NC(=O)c1cc(CCc2ccc3c(n2)NCCC3)c[nH]1)c1ccc2c(c1)OCC2
value unit: nM
value observed: 1220
--
compound: COc1ncc(C(CC(=O)O)NC(=O)c2cc(CCc3ccc4c(n3)NCCC4)c[nH]2)cn1 (centres unmarked)
value unit: nM
value observed: 3710

a: O=C(O)C[C@H](NC(=O)c1cc(CCc2ccc3c(n2)NCCC3)c[nH]1)c1cnc2ccccc2c1
b: Cc1ncc(C(CC(=O)O)NC(=O)c2cc(CCc3ccc4c(n3)NCCC4)c[nH]2)cn1 (centres unmarked)
Qu. // which entry reports the smaller IC50, a or b ? Your answer should be the label of the entry you select.
Ans. a

====

Target: human αVβ8 (Homo sapiens, UniProt P06756+P26012)
Test: human αVβ8 HTRF binding assay
pIC50: −log10 of the molar value.
parameter: pIC50

compound: Cc1cc(C)c(S(=O)(=O)N[C@@H](CNC(=O)c2cc(CCC3CCc4cccnc4N3)c[nH]2)C(=O)O)c(C)c1 (mixture of isomers)
parameter: pIC50
value observed: 7.93

P: Cc1cc(C)c(S(=O)(=O)N[C@@H](CNC(=O)c2cc(CCc3ccc4c(n3)NCCC4)c[nH]2)C(=O)O)c(C)c1
Q: O=C(O)C[C@H](NC(=O)c1cc(CCc2ccc3c(n2)NCCC3)c[nH]1)c1ccc2c(c1)OCC2
Qu. // which entry reports the smaller pIC50, P or Q ? Your answer should be the label of the entry you select.
Ans. Q

====

Target: human αVβ6 Integrin (Homo sapiens, UniProt P06756+P18564)
Assay: human αVβ6 HTRF binding assay
Source text: All binding assays used the HTRF (homogeneous time resolved fluorescence) technology from Cisbio International, therefore all assays are described as HTRF binding assays. The assay results for the Examples are listed above together with the characterization data. The HTRF binding assays are established for the following integrins: human αVβ6, human αVβ1, human αVβ3, human αVβ5, and human αVβ8. […]
parameter: IC50 (nM)

Consider the worked cases shown below.
compound: COc1ccc([C@H](CC(=O)O)NC(=O)c2cc(CCc3ccc4c(n3)NCCC4)c(C)[nH]2)cc1F
target entity: human αVβ6 Integrin (Homo sapiens, UniProt P06756+P18564)
value unit: nM
IC50: 5.93

compound: COc1ccc([C@H](CC(=O)O)NC(=O)c2cc(CCc3ccc4c(n3)NCCC4)cn2C)cn1
target entity: human αVβ6 Integrin (Homo sapiens, UniProt P06756+P18564)
value unit: nM
IC50: 22.5

a: COc1ccc([C@H](CC(=O)O)NC(=O)c2cc(CCc3ccc4c(n3)NCCC4)cn2C)cc1F
b: Cc1ncc(C(CC(=O)O)NC(=O)c2cc(CCc3ccc4c(n3)NCCC4)c[nH]2)cn1 (stereo not shown)
Qu. Which has the higher IC50, a or b ? Your answer should be the label of the entry you select.
Ans. a
(a: 22.1 nM, b: 6.7 nM)

====

Molecular target: human αVβ6 Integrin (Homo sapiens, UniProt P06756+P18564)
Experiment: human αVβ6 HTRF binding assay
Structures can show the parent of a compound that is named as a salt.
parameter: IC50 (nM)

P: COc1ccc([C@@H](CC(=O)O)NC(=O)c2cc(CCc3ccc4c(n3)NCCC4)c[nH]2)cc1F
Q: O=C(O)C[C@H](NC(=O)c1cc(CCc2ccc3c(n2)NCCC3)c[nH]1)c1ccc2c(c1)OCC2
R: CCn1cc(CCc2ccc3c(n2)NCCC3)cc1C(=O)N[C@@H](CC(=O)O)c1ccc(OC)c(F)c1
S: COc1ncc(C(CC(=O)O)NC(=O)c2cc(CCc3ccc4c(n3)NCCC4)c[nH]2)cn1 (centres unmarked)
T: Cc1cc(C)c(S(=O)(=O)N[C@@H](CNC(=O)c2cc(CCC3CCc4cccnc4N3)c[nH]2)C(=O)O)c(C)c1 (mixture of isomers)
Qu. From the items above, give an ordering by IC50 that starts at the lowest reported number. Present the labels in the sequence the task asks for.
Ans. T, Q, S, R, P

1: O=C(N[C@@H](CNC(=O)c1cc(CCc2ccc3c(n2)NCCC3)c[nH]1)C(=O)O)OCc1ccccc1 [Example 25, TFA]
2: CCn1cc(CCc2ccc3c(n2)NCCC3)cc1C(=O)N[C@@H](CC(=O)O)c1ccc(OC)nc1
3: Cc1cc(C)c(S(=O)(=O)N[C@@H](CNC(=O)c2cc(CCc3ccc4c(n3)NCCC4)c[nH]2)C(=O)O)c(C)c1
Qu. Put the items in order so that reported IC50 rises from first to last. Present the labels in the sequence the task asks for.
Ans. 1, 3, 2
(1: 0.34 nM, 3: 1.02 nM, 2: 46.8 nM)

Where do the numbers come from? From patent US10717736B2.
